# method: OECD 306 biodegradation test, closed bottle method
# measurementSetup: 28 days; percent of measured COD; no substrate; acidic, non-neutralized form
# Procedure: Full details of the procedure and methods of calculation are publicly available in OECD documents. In all cases, the tests were performed without a substrate and the percent biodegradation was determined as a percentage of the measured chemical oxygen demand (COD). Each of the datasets presented in Table 1 and FIGS. 2 through 5 were obtained on the products as described in their acidic, non-neutralized forms.
Please go through the items and note down their BIODEGRADATION by OECD 306 Max, 28 d (%).
Answer with a number only, understood to be in %.

Entry O=P(O)(O)CN(CCCCCCN(CP(=O)(O)O)CP(=O)(O)O)CCCCCCN(CP(=O)(O)O)CP(=O)(O)O — recorded BIODEGRADATION by OECD 306 Max, 28 d (%) = 6

The recorded BIODEGRADATION by OECD 306 Max, 28 d (%) for entry O=P(O)(O)CN(CCN(CCN(CP(=O)(O)O)CP(=O)(O)O)CP(=O)(O)O)CCN(CP(=O)(O)O)CP(=O)(O)O equals 0

Per the records, this compound ( O=P(O)(O)CN(CCO)CP(=O)(O)O ) has BIODEGRADATION by OECD 306 Max, 28 d (%) equal to 6

The compound identified as O=P(O)(O)CN(CCN(CP(=O)(O)O)CP(=O)(O)O)CCN(CP(=O)(O)O)CP(=O)(O)O registered its BIODEGRADATION by OECD 306 Max, 28 d (%) at 0
